# Tested on: OVCAR-4 ovarian
# method_notes: NCI-60 one-dose screen, 48 h
# settings: 10 µM
# Experimental: Growth inhibition of the OVCAR-4 human tumor cell line is measured as a screen for anti-cancer activity. Cells are grown in 96 well plates and exposed to the test compound for 48 hours. Compounds are tested at a single concentration, which is 10^-5 M for most compounds. The reported endpoint is percent growth (GI% or GIPRCNT), where numbers from 0 - 100% represent growth inhibition, and numbers from -100% - 0 represent cell death. For example, a value of 40 represents 60% growth inhibition. […]
Compounds without any hit were thinned out: in the full panel of roughly 83,000, 20% have a hit. Active and inactive are the calls of the source. Rule for the calls: active = growth percent below 10; inactive = the rest.
Respond only with the outcome that fits, drawn from active, inactive

IN: Write down the call the test reported for this compound. Item: N=c1c(C(=O)OCc2ccccc2)ncc(CCl)n1O
OUT: inactive

IN: Query: recorded result category for CCOC(=O)c1ccc(NC(=S)P(=O)(c2ccccc2)c2ccccc2)cc1 in this test
OUT: inactive

IN: For COC(=O)/C=C/C(=O)NC(N)=O , which call appears in the assay record?
OUT: inactive

IN: State the result this test recorded for CCC/C=C(\C)C(C)(C#N)C(=O)OCC (stereo not given) .
OUT: inactive

IN: State the result this test recorded for CC1(C(N)=O)CCC(C(=O)O)C1(C)C (stereo not given) .
OUT: inactive

IN: Hi, sorry to bother you, what did the test record for Cc1ccc(C(=O)c2ccccc2)c(C)c1 ?
OUT: inactive

IN: Which outcome was assigned to COC(=O)c1cccnc1 in this test?
OUT: inactive

IN: Dear all, I need the recorded test outcome for Nc1ccc(N)c([N+](=O)[O-])c1 , thank you.
OUT: inactive

IN: Recorded test outcome, item Cc1cc(C)c(N)c(S(=O)(=O)O)c1
OUT: inactive

IN: Hi team, can someone confirm the assay call for CN(C)CCN(C)CC(C)(C)C(=O)/C=C/c1ccc(Cl)cc1 ?
OUT: active

IN: Could you kindly confirm the outcome this assay logged for O=C(Nc1ccccc1C(=O)NCC1CC1)c1cccs1 ?
OUT: inactive

IN: What did this assay record as the result for O=[N+]([O-])c1ccc(/C=C/C=C/c2ccccc2)c(Cl)c1 ?
OUT: inactive

IN: Hello, I am checking results. What call was entered for CCOC(=O)C(O)C(O)C(=O)OCC (stereo not given) ?
OUT: inactive

IN: Which outcome was entered for the compound CCCCC(=O)c1ccc(OC)cc1 in this test?
OUT: inactive

IN: // return assay outcome for O=C(Cc1ccccc1)Cc1ccccc1
OUT: inactive

IN: Entry C/C(=N/NC(N)=O)c1ccco1 : call = ?
OUT: inactive

IN: Lab log entry: COc1ccc(C(=O)C(Br)C(Br)C(=O)O)cc1 (stereo not given) — outcome as called in the assay?
OUT: inactive

IN: Which outcome was entered for the compound CC(CN1CCCCC1)NC(=O)c1scnc1-c1ccccc1 (stereo not given) in this test?
OUT: inactive

IN: Just curious, what result did O=C1C=CC(=O)N1c1ccc(I)cc1Cl get here?
OUT: inactive

IN: Write down the call the test reported for this compound. Item: CCOC(=O)C(C#N)Cc1ccccc1 (stereo not given)
OUT: inactive

IN: Lab log entry: COc1ccc(OC)c(/C=C2\CCc3ccccc3C2=O)c1 — outcome as called in the assay?
OUT: inactive

IN: Please share the test call associated with Cc1c(O)cccc1O .
OUT: inactive

IN: For this compound, state the assay outcome: CC(C)OC(=O)c1cc(NC(=S)OC(C)C)ccc1Cl
OUT: inactive

IN: // return assay outcome for CC(C)CCCC(=O)O
OUT: inactive

IN: In this assay, the call recorded for CN(C)c1ccc2nc3ccc(=N)cc-3sc2c1 was what?
OUT: active

IN: GET /call?item= O=[N+]([O-])c1cccc(C(F)(F)F)c1 returns the recorded outcome of this test.
OUT: inactive

IN: GET /call?item= C=CCNC(=O)c1ccc(OC)cc1 returns the recorded outcome of this test.
OUT: inactive

IN: Fill in: this test's call for Cc1cc2nc(CO)[nH]c2cc1C is ___
OUT: inactive

IN: What is the recorded call for this compound in the test? O=[N+]([O-])c1ccccc1N=Nc1ccc(O)cc1O
OUT: inactive

IN: Dear colleague, could you share the recorded outcome for OCC1OC(OC2C(O)C(CO)OC2(CO)OC2OC(CO)C(O)C(O)C2O)C(O)C(O)C1O (stereo not given) when you have a moment?
OUT: inactive

IN: For CCCCC(CC)COC(C)=O (stereo not given) , what call appears in the results of this test?
OUT: inactive

IN: What outcome does the record of this test show for CC(=O)Cc1ccc(-c2ccccc2)cc1 ?
OUT: inactive

IN: What classification did CC1Cc2ccccc2O1 (stereo not given) end up with in this test?
OUT: inactive

IN: What was the test verdict on Cc1ccc(/C=C2\SC(=S)N(c3ccc(F)cc3)C2=O)o1 ?
OUT: inactive

IN: Returns: the outcome recorded for CCOC(=O)C(=O)C=P(c1ccccc1)(c1ccccc1)c1ccccc1 in this assay.
OUT: inactive

---

# Tested on: A498 renal
# method_notes: NCI-60 one-dose screen, 48 h (100 = growth as untreated, 0 = no growth, -100 = all killed)
# settings: 10 µM
This is part of a sample that, as a whole, favours compounds with a hit. Of some 83,000 tested, about 20% had one in any assay.
observed_property: growth (%)
Just the number in %, nothing appended.

Param item: CCCC(C)OCC(=O)O (stereo unspecified) ; param system: A498 renal; output growth: 103

// assay A498 renal, entry S=C(Nc1ccccc1)N1CCCCC1 , growth value = 77.6

Field growth (system: A498 renal) for entry CCOC(=O)/C(=C/c1ccc(OC)cc1)N(CC)CC = 109

Value sought: growth, system A498 renal, item O=c1cc2oc3cc(O)c(O)cc3c(-c3ccccc3O)c-2cc1O . Result: 48

growth value, target or system A498 renal, for CCc1nn(Cc2ccccc2)c2nc(C)c(CCc3ccccc3)c(Cl)c12 : 99.1

C=CC[N+](C)(C)C on A498 renal gives growth = 106

Nc1nc(OCc2ccccc2)c2[nH]cnc2n1 tested on A498 renal gave growth: 86.1

Known value: A498 renal growth of the molecule CCOc1ccc(Br)cc1/C=N\N=C\c1cc(Br)ccc1OCC equals 141

A498 renal data for CCC(C)(C)C1CCC(O)CC1 (stereo unspecified) ; its growth: 97.8

I looked up O=C1OC[C@H]2[C@H](c3ccc(O)c(O)c3)c3cc(O)c(O)cc3C[C@H]12 and its growth for A498 renal was 134

Record for O=C(O)c1ccccc1NCc1ccco1 under target or system A498 renal: growth reported as 99.9

---

# Tested on: HCC-2998 colon
# method_notes: NCI-60 one-dose screen, 48 h (100 = growth as untreated, 0 = no growth, -100 = all killed)
# settings: 10 µM
About 83,000 compounds went through this panel and 20% of them were active in at least one assay; those are over-represented in the sample as a whole.
observed_property: growth (%)
Output spec: scalar in %, unitless text.

Record CC1CC(O)C2C3(C)CCCC2(COC3=O)C12CCC1(CCOC1=O)O2 (stereo unspecified) . Reported growth: 122

Looking up CNS(=O)(=O)c1ccc(Cl)c(Cl)c1 , I see its growth listed as 118

Per the records, this molecule ( CC1(C)/C(=C\CO)C2CCC1C2 (stereo unspecified) ) has growth equal to 104

Value of growth reported for the molecule OC1CCCc2ccccc21 (stereo unspecified) is 119

The molecule O=[N+]([O-])c1ccc(-c2ncc(-c3ccc(Br)cc3)o2)cc1 showed growth equal to 88.2

// field: growth; key: CN(C)c1ccc(CNC(C(=O)c2ccccc2)c2ccccc2)cc1 (stereo unspecified) ; value = 106

Please fill in: growth reported for CN1C(=O)CN2CCc3ccccc3C2c2cc(Cl)ccc21 (stereo unspecified) = 98.1

# molecule COC(=O)c1cccc(Br)c1 ; its growth = 107

Data point: CCCOC(=O)C(O)c1ccccc1 (stereo unspecified) ; growth = 110

Kindly note the recorded growth for COc1ccccc1NC(=O)C1=C(C)NC(C)=C(C(=O)Nc2ccccc2OC)C1c1cccc([N+](=O)[O-])c1 , which is 76.9

growth in this record for Cc1ccc(C)n1-c1ccsc1C(=O)NNC(=O)CCl : 116

OCc1ccc(-c2ccc(-c3ccc(CO)s3)o2)s1 yielded growth of -14.5

The measured growth associated with CC12CC3CC1C(C(=O)O2)C3C(=O)O (stereo unspecified) reads 95.8

growth recorded for this molecule, CCCC1(c2ccccc2)NC(=O)NC1=O (stereo unspecified) , is 100

The recorded growth for CC1(c2ccccc2)NC(=O)NC1=O (stereo unspecified) is 102

Sure, the documented growth for CC1=NN(c2ccccc2)C(=O)/C1=C\N1CC(=O)NC1=S is 108

Per the record, N#CC(=Nc1cccc(F)c1)C1=C(O)c2ccccc2C1=O has growth of 101

The measured growth associated with OCC(O)C(O)C(O)C(O)/C=N/O (stereo unspecified) reads 102

GET /value?item= CC(=Nc1ccccc1)C1=C(O)C(Cc2cccc(F)c2)NC1=O (stereo unspecified) &field=growth returns 26.9

Field growth (entry c1ncc2[nH]cnc2n1 ) reads 93.7

# molecule COC(=O)c1ccc(NC(=O)CCl)cc1 ; its growth = 113

growth recorded for this molecule, Nc1nc(N)c(N=Nc2ccc(C(=O)O)cc2)c(N)n1 , is 100

The molecule listed as Nc1ccc(N)c([N+](=O)[O-])c1 has a reported growth of 106

Briefly, growth measured for CC1=CC(=O)c2ccccc2C1=O : 108

For COc1cc(C2NC(=O)C(C#N)=C(Nc3cccc(C)c3)S2)ccc1O (stereo unspecified) the molecule record lists growth as 106

Value of measured growth for the entry C#C[C@H]1CCCCCC1O (stereo partly specified) : 102

In plain terms, CCOc1ccc(/C=N/N=C(N)N)cc1OCC has a documented growth of 101

// growth lookup, molecule = Cc1cc(N)c(S(=O)(=O)O)c(N)c1 , result: 86.3

// growth value for CCOc1ccc(/C=C/C(=O)c2ccccc2)cc1 : 92.5

get_value(item= C=CC[N+](C)(C)C , readout=growth) returns 103

Entry Nc1ccc(C(=O)c2ccc(N)c(Br)c2)cc1Br — recorded growth = 14.1

Sure, the documented growth for O=C(NCc1ccco1)Nc1c(Cl)cc(Cl)cc1Cl is 102

The molecule listed as CC1CCC2C(C)(C)C3CC12CC1OC13C (stereo unspecified) shows growth equal to 127

Form: molecule = Cc1cccc(C(=O)N(C(C)C)C(C)C)c1 ; growth = 109

Form field growth, entry C=CCOC(=O)C(=O)OCC=C : 107

Sample CC(=O)OCC(=O)[C@@]1(O)CC[C@H]2[C@@H]3CC[C@@H]4C[C@H](O)CC[C@]4(C)[C@H]3C(=O)C[C@@]21C ; growth observed: 97.5

Data point: O=S(=O)(O)C(Nc1ccccc1)c1ccccc1 (stereo unspecified) ; growth = -12.8

Record COC(=O)Nc1nc2ccc(C(=O)c3cccs3)cc2[nH]1 . Reported growth: 12.1

Record CC(=O)OCC1OC(OC2=C(CC=C(C)C)C(=O)c3ccccc3C2=O)C(OC(C)=O)C(OC(C)=O)C1OC(C)=O (stereo unspecified) , field growth: 77.9

Summary for this molecule, O=C(c1ccc(Cl)cc1)c1ccccc1Cl : growth is 92.6

Value of measured growth for the entry N#Cc1ccc(OC(=O)Nc2ccc(Cl)c(Cl)c2)cc1 : 87.1
